- Assay System: TLR2 (Homo sapiens, UniProt O60603)
- Sequence (O60603 21-784): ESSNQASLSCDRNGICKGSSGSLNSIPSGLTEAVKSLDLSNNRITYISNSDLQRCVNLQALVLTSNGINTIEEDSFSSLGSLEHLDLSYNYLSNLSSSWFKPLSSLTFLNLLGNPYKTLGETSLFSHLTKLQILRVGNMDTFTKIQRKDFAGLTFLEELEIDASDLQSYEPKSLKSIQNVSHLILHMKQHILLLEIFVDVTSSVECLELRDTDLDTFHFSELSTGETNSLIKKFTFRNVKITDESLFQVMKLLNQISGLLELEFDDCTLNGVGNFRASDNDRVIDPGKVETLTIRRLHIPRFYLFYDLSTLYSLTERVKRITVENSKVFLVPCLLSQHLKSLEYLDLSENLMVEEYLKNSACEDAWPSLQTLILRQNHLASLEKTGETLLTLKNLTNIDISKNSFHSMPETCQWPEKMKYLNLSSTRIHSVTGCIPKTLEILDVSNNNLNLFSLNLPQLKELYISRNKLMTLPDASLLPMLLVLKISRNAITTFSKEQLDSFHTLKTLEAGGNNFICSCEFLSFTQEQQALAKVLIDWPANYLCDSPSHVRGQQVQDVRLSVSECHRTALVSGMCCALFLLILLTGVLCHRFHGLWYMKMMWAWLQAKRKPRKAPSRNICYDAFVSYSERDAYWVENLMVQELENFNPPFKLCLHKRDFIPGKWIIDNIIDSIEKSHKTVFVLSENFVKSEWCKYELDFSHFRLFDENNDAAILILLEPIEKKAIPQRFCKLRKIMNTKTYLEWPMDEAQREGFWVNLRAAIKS
- Test Name: In cyto Europium TRF competition binding assay
- Set-up: SU.86.86 pancreatic cells with endogenous expression of TLR2 were used for the assay; host or cells: SU.86.86 pancreatic adenocarcinoma cells
- Run Parameters: competition with 90 nM Eu-labeled compound 11, SU.86.86 cells, 1 h 37° C.; read-out: TLR2 Binding Affinity (Ki)
Value Kind: Ki (nM)
# value in nM; strip the unit string

What is its Ki for TLR2 (Homo sapiens, UniProt O60603)? Entry: CCCCCCCCCCCCCCCC(=O)OCCSC[C@H](NC(=O)COCC(=O)NCCCOCCOCCOCCCNC(C)=O)C(=O)NCC(=O)N[C@H](CO)C(=O)NCCCOCCOCCOCCCNC(=O)COCC(N)=O
22

# get_value(readout= Ki, system= TLR2 (Homo sapiens, UniProt O60603)) for CCCCCCCCCCCCCCCC(=O)OC[C@H](CSC[C@H](NC(=O)COCC(=O)NCCCOCCOCCOCCCNC(C)=O)C(=O)NCC(=O)N[C@H](CO)C(=O)NCCCOCCOCCOCCCNC(=O)COCC(N)=O)OC(=O)CCCCCCCCCCCCCCC [compound 10, reference compound]
91

Give TLR2 (Homo sapiens, UniProt O60603) Ki for CCCCCCCCCCCCCCCC(=O)OCCSC[C@H](NC(=O)COCC(=O)NCCCOCCOCCOCCCNC(=O)c1ccc(C2=C(/C=C/C3=[N+](CCC)c4ccccc4C3(C)C)CCC/C2=C\C=C2\N(CCC)c3ccccc3C2(C)C)cc1)C(=O)NCC(=O)N[C@H](CO)C(=O)NCCCOCCOCCOCCCNC(=O)COCC(N)=O
16
